biological target: human adenosine A2A receptor (Homo sapiens, UniProt P29274); construct: expressed in transfected cells; host or cells: HEK293 cells infected with BacMam; assay: Inhibition binding assay, human adenosine A2A receptor membranes, [3H]ZM241385; details: 1 nM [3H]ZM241385, HEK293-hA2A membranes, 25° C., 1 h; IC50 converted to Ki with Cheng-Prusoff; read-out: A2A pKi (converted)
Sequence (P29274 whole entry): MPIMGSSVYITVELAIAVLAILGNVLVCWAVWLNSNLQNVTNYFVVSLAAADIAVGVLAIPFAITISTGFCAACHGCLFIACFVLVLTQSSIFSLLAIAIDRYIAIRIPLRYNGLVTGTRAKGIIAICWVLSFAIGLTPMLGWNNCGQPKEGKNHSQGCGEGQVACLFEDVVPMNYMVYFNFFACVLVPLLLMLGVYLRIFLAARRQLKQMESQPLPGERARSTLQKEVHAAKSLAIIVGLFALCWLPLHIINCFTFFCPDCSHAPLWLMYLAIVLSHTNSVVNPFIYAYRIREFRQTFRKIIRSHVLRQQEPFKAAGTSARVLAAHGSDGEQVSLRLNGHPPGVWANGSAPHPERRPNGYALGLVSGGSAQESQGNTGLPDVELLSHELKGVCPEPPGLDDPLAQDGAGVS
The following compounds are listed with their measured Ki values.
Supply the numeric figure in nM, leaving out any unit text.

Value of measured Ki for the entry "COc1cc(-c2c(-c3ccc(F)cc3)nc(N)n3c(=O)n(Cc4ccc(C)cn4)nc23)cc(CO)n1" : 0.794

Value of measured Ki for the entry "Cc1cc(-c2c(-c3ccccc3)nc(N)n3c(=O)n(Cc4cccnn4)nc23)cc(C)[n+]1[O-]" : 31.6

---
Value of measured Ki for the entry "Cc1cc(-c2c(-c3ccccc3)nc(N)n3c(=O)n([C@@H]4CCCc5ccc(F)cc54)nc23)cc(C)n1" : 3.16

Value of measured Ki for the entry "Cc1cc(-c2c(-c3ccc(F)cc3F)nc(N)n3c(=O)n(CCC(F)(F)F)nc23)cc(C)n1" : 15.8

* * *

target: human adenosine A2A receptor (Homo sapiens, UniProt P29274); construct: expressed in transfected cells; host or cells: HEK293 cells infected with BacMam; experiment: Inhibition binding assay, human adenosine A2A receptor membranes, [3H]ZM241385; details: 1 nM [3H]ZM241385, HEK293-hA2A membranes, 25° C., 1 h; IC50 converted to Ki with Cheng-Prusoff; read-out: A2A pKi (converted)
Value Type: Ki (nM)
Supply the numeric figure in nM, leaving out any unit text.

Examples with answers:
Value of measured Ki for the entry Cc1cc(-c2c(-c3ccccc3)nc(N)n3c(=O)n(C(C)c4cc(F)ccc4F)nc23)cc(C)n1 (stereo not shown) [Example 1-15] : 1.58

Value of measured Ki for the entry Cc1cc(-c2c(-c3ccccc3)nc(N)n3c(=O)n(C4CCCNC4)nc23)cc(C)n1 (stereo not shown) [Example 2-55] : 251

Value of measured Ki for the entry Cc1ccc(NC2CCN(CCn3nc4c(-c5cc(C)nc(C)c5)c(-c5ccccc5)nc(N)n4c3=O)CC2)nc1 [Example 1-97] : 63.1

Value of measured Ki for the entry Cc1cc(-c2c(-c3ccccc3)nc(N)n3c(=O)n(Cc4c(F)cccc4F)nc23)cc(C)n1 [Example 1-23] : 0.1

Value of measured Ki for the entry Cc1cc(-c2c(-c3ccccc3)nc(N)n3c(=O)n(CCN4CCCCCC4c4cccn4C)nc23)cc(C)n1 (stereo not shown) [Example 1-96] : 3.98

---
Value of measured Ki for the entry Nc1nc(-c2ccccc2)c(-c2cc(Cl)nc(C(F)(F)F)c2)c2nn(Cc3ccc(F)cn3)c(=O)n12 [Example 1-79] : 2.51

Value of measured Ki for the entry Cc1cc(-c2c(-c3ccccc3)nc(N)n3c(=O)n(Cc4ccc(F)cn4)nc23)cc(N(C)C)n1 [Example 1-71] : 20

* * *

molecular target: human adenosine A1 receptor (Homo sapiens, UniProt P30542); construct: expressed in transfected cells; host or cells: HEK293 cells infected with BacMam (the same paragraph also labels the preparation CHO-hA1); test: Inhibition binding assay, human adenosine A1 receptor membranes, [3H]DPCPX; settings: 1 nM [3H]DPCPX, 25° C., 1 h; IC50 converted to Ki with Cheng-Prusoff; read-out: A1 pKi (converted)
The following compounds are listed with their measured Ki values.
Supply the numeric figure in nM, leaving out any unit text.

Examples with answers:
Value of measured Ki for the entry "Cc1cc(-c2c(-c3ccccc3)nc(N)n3c(=O)n(CC(N)=O)nc23)cc(C)n1" : 1000

Value of measured Ki for the entry "Cc1cc(-c2c(-c3ccccc3)nc(N)n3c(=O)n(CCN(C)C4CCN(c5ccccc5)CC4)nc23)cc(C)n1" : 631

Value of measured Ki for the entry "Cc1cc(-c2c(-c3ccccc3)nc(N)n3c(=O)n(CCC(F)(F)F)nc23)cc(C)n1" : 501

Continue with the next compound.
Value of measured Ki for the entry CCC1(C)CC1Cn1nc2c(-c3cc(C)nc(C)c3)c(-c3ccccc3)nc(N)n2c1=O (stereo not shown) : 31.6

* * *

Target: human adenosine A1 receptor (Homo sapiens, UniProt P30542)
Construct: expressed in transfected cells; host or cells: HEK293 cells infected with BacMam (the same paragraph also labels the preparation CHO-hA1)
Sequence (P30542 1-326): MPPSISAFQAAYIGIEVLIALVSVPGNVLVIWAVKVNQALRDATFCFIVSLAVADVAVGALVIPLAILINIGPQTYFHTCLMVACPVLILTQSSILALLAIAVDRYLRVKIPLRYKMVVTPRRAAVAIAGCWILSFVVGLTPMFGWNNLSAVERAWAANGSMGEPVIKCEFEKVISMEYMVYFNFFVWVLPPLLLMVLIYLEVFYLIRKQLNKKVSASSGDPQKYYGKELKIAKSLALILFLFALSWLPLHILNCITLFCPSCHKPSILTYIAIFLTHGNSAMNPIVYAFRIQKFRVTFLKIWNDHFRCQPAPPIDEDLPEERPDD
Test: Inhibition binding assay, human adenosine A1 receptor membranes, [3H]DPCPX
Conditions: 1 nM [3H]DPCPX, 25° C., 1 h; IC50 converted to Ki with Cheng-Prusoff; read-out: A1 pKi (converted)
Description: Inhibition binding assays were performed using 0.2 μg of membranes prepared from HEK293 cells infected with BacMam human adenosine A2A receptor or 1.4 μg of membranes prepared from HEK293 cells infected with BacMam human adenosine A1 receptor. […] Bound radioactivity was determined by liquid scintillation counting and inhibition curves were analysed using a four-parameter logistic equation. […]
Value Type: log10 Ki (log10 of the value in nM)
Plainly stated, the numbers are log10 of Ki given in nM.

Examples with answers:
Reading of log10 Ki for "Cc1cc(-c2c(-c3ccccc3)nc(N)n3c(=O)n(Cc4c(F)cccc4F)nc23)cc(C)n1" with human adenosine A1 receptor (Homo sapiens, UniProt P30542): 0.50

Reading of log10 Ki for "COC(=O)c1ccc(CCn2nc3c(-c4cc(C)nc(C)c4)c(-c4ccccc4)nc(N)n3c2=O)cc1" with human adenosine A1 receptor (Homo sapiens, UniProt P30542): 2.90

---
Reading of log10 Ki for "Cc1cc(-c2c(-c3ccc(F)cc3)nc(N)n3c(=O)n(Cc4cccnn4)nc23)cc(CO)n1" with human adenosine A1 receptor (Homo sapiens, UniProt P30542): 2.80

Reading of log10 Ki for "Nc1nc(-c2ccccc2)c(-c2cc(CO)nc(C(F)(F)F)c2)c2nn(CCC(F)(F)F)c(=O)n12" with human adenosine A1 receptor (Homo sapiens, UniProt P30542): 2.70

* * *

biological target: human adenosine A2A receptor (Homo sapiens, UniProt P29274); construct: expressed in transfected cells; host or cells: HEK293 cells infected with BacMam; assay: Inhibition binding assay, human adenosine A2A receptor membranes, [3H]ZM241385; conditions: 1 nM [3H]ZM241385, HEK293-hA2A membranes, 25° C., 1 h; IC50 converted to Ki with Cheng-Prusoff; read-out: A2A pKi (converted)
Value Type: Ki (nM)
Supply the numeric figure in nM, leaving out any unit text.

Value of measured Ki for the entry Cc1cc(-c2c(-c3ccccc3)nc(N)n3c(=O)n(CCN4CCC(F)(F)CC4)nc23)cc(C)n1 [Example 2-101] : 15.8

Value of measured Ki for the entry Cc1cc(-c2c(-c3ccccc3)nc(N)n3c(=O)n(C[C@@H]4COCCN4)nc23)cc(C)n1 [Example 2-79] : 15.8

---
Value of measured Ki for the entry CCN(C)c1nc(N)n2c(=O)n(CCC(F)(F)F)nc2c1-c1cc(C)nc(C)c1 [Example 3-4] : 126

Value of measured Ki for the entry Cc1cc(-c2c(-c3ccccc3)nc(N)n3c(=O)n(Cc4ccc(F)cc4)nc23)cc(C)n1 [Example 1-1] : 0.398

* * *

target: human adenosine A2A receptor (Homo sapiens); construct: expressed in transfected cells; host or cells: HEK293 cells infected with BacMam; assay: Inhibition binding assay, human adenosine A2A receptor membranes, [3H]ZM241385; conditions: 1 nM [3H]ZM241385, HEK293-hA2A membranes, 25° C., 1 h; IC50 converted to Ki with Cheng-Prusoff; read-out: A2A pKi (converted)
The following compounds are listed with their measured Ki values.
Supply the numeric figure in nM, leaving out any unit text.

Reading of Ki for "Cc1cc(-c2c(-c3ccccc3)nc(N)n3c(=O)n(Cc4ccccc4C4CCNCC4)nc23)cc(C)n1" with human adenosine A2A receptor (Homo sapiens): 0.501

---
Reading of Ki for "Cc1cc(-c2c(Cl)nc(N)n3c(=O)n(CCC(F)(F)F)nc23)cc(C)n1" with human adenosine A2A receptor (Homo sapiens): 631

Reading of Ki for "Cc1cc(-c2c(-c3ccccc3)nc(N)n3c(=O)n(C[C@@H]4COCCN4C)nc23)cc(C)n1" with human adenosine A2A receptor (Homo sapiens): 7.94

Reading of Ki for "Cc1cc(-c2c(-c3ccc(F)cc3)nc(N)n3c(=O)n(CCC(F)(F)F)nc23)cc(Cl)n1" with human adenosine A2A receptor (Homo sapiens): 0.794

Reading of Ki for "Cc1cc(-c2c(-c3ccccc3)nc(N)n3c(=O)n(Cc4ccc(F)cc4C)nc23)cc(C)n1" with human adenosine A2A receptor (Homo sapiens): 0.0794

Reading of Ki for "Cc1cc(-c2c(-c3ccc(F)cc3)nc(N)n3c(=O)n(Cc4ccc(C#N)cn4)nc23)cc(CO)n1" with human adenosine A2A receptor (Homo sapiens): 631

Reading of Ki for "Cc1cc(-c2c(-c3ccccc3)nc(N)n3c(=O)n(Cc4cccc(=O)[nH]4)nc23)cc(C)n1" with human adenosine A2A receptor (Homo sapiens): 12.6

Reading of Ki for "Cc1cc(-c2c(N3CCCCC3)nc(N)n3c(=O)n(CCC(F)(F)F)nc23)cc(C)n1" with human adenosine A2A receptor (Homo sapiens): 6.31

Reading of Ki for "Cc1cc(-c2c(-c3ccccc3)nc(N)n3c(=O)n(CCN(C)C4CC4)nc23)cc(C)n1" with human adenosine A2A receptor (Homo sapiens): 3.98

Reading of Ki for "Cc1ccc(Cn2nc3c(-c4cc(C)nc(CO)c4)c(-c4ccccc4)nc(N)n3c2=O)nc1" with human adenosine A2A receptor (Homo sapiens): 0.631

Reading of Ki for Cc1cc(-c2c(-c3ccc(F)cc3)nc(N)n3c(=O)n(CC4CCCN=N4)nc23)cc(CO)n1 (stereo not shown) with human adenosine A2A receptor (Homo sapiens): 31.6

Reading of Ki for "Cc1cc(-c2c(-c3ccccc3)nc(N)n3c(=O)n(CCCN4CCCCC4)nc23)cc(C)n1" with human adenosine A2A receptor (Homo sapiens): 398

Reading of Ki for "Cc1cc(-c2c(-c3ccccc3)nc(N)n3c(=O)n(CC(N)=O)nc23)cc(C)n1" with human adenosine A2A receptor (Homo sapiens): 200

Reading of Ki for "CCOc1ccccc1Cn1nc2c(-c3cc(C)nc(C)c3)c(-c3ccccc3)nc(N)n2c1=O" with human adenosine A2A receptor (Homo sapiens): 0.2

Reading of Ki for "Cc1cc(-c2c(-c3ccccc3)nc(N)n3c(=O)n(Cc4ccc(F)cn4)nc23)cc(N2CCC2)n1" with human adenosine A2A receptor (Homo sapiens): 3.16

Reading of Ki for "Cc1cc(-c2c(-c3ccccc3)nc(N)n3c(=O)n(C)nc23)cc(C)n1" with human adenosine A2A receptor (Homo sapiens): 5.01

Sourced from patent US12528815B2
